# experiment-description: caspase-8 TRAIL sensitization, hit retest, confirmation, cell-based, NB7+caspase-8, with/without TRAIL, luminescence panel (AID 651596)
# condition-context: NB7 neuroblastoma + caspase-8, without TRAIL, luminescence viability, without TRAIL, mean of runs, at 10 µM
Provide the recorded activity for the entries that follow.
Answers are plain numbers, in %.

Answered cases to consult:
1) Fc1ccc(-n2nnc(-c3cnc4ccccc4c3)n2)cc1 63.9
2) CCOc1ccc(/C=C/C(=O)c2c(O)cc(C)oc2=O)cc1 77.8
3) Cc1cc(NC(=O)c2ccc(C(C)(C)C)cc2)no1 79.9
4) Cc1ccccc1NC(=O)Cc1nc(COC(=O)c2ccc(S(C)(=O)=O)c([N+](=O)[O-])c2)cs1 93.9
5) Cc1ccc(-c2nc(-c3ccccn3)no2)cc1 96.3

With those in mind, consider the next molecule.
[Q] Need activity of `NC(=O)c1ccsc1NC(=O)c1coc2ccccc2c1=O` , thanks.
[A] 33.8
